Literature-derived IC50 for S1P1 (Homo sapiens (Human)) follows.

// known answers, use as guide
[
  {
    "querySmiles": "COC(=O)c1c(-c2ccccn2)noc1-c1nc(-c2ccc(CN3CC(C(=O)O)C3)cc2)no1",
    "IC50": "0.53 nM"
  },
  {
    "querySmiles": "C[C@](N)(COP(=O)(O)O)c1nnc(-c2ccc(OCCCCc3ccccc3)c(C(F)(F)F)c2)s1",
    "IC50": "3.23 nM"
  },
  {
    "querySmiles": "COc1cccc(/C(C)=N/OCc2ccc([C@H]3CC[C@](N)(COP(=O)(O)O)C3)cc2)c1",
    "IC50": "14.2 nM"
  }
]

// next item, IC50 requested
Data point: `C[C@](N)(CO)C(=O)Nc1ccc(OCCc2cccc(-c3ccccc3)c2)cc1` ; IC50 = > 10000 nM
